System: primary human hepatocytes
quantity: Log2 fold changes in gene expression: CYP3A4
Reply with just the number.

Prompt: Look up and report Log2 fold changes in gene expression: CYP3A4, with primary human hepatocytes as system, for CCc1nn(CCCN2CCN(c3cccc(Cl)c3)CC2)c(=O)n1CCOc1ccccc1
Response: 0.4

====

Entries and their measured RNA-seq results: CROT expression follow.
Tested on: hepatocytes
assay-info: RNA-seq of hepatocytes treated with Phase III failure compounds
assay-setup: gene CROT; hepatocytes
Description: RNA-seq was performed to determine the effects of the compounds on hepatocytes. Significance was determined by the criteria of FPKM≥0.5, a log 2(fold-change)≥1, and a […].
Reply with just the number.

Some compounds with known RNA-seq results: CROT expression results, for comparison:
CCN(CC)CCN(Cc1ccc(-c2ccc(C(F)(F)F)cc2)cc1)C(=O)Cn1c(SCc2ccc(F)cc2)nc(=O)c2c1CCC2 [Darapladib] : −0.49
COc1cc2nccc(Oc3ccc(NC(=O)Nc4cc(C)on4)c(Cl)c3)c2cc1OC [Tivozanib] : −0.02
O=P(O)(NCCCl)NCCCl [Palifosfamide] : −0.69

Prompt: Identify the reported RNA-seq results: CROT expression for the following entry. Cn1cnc2c(F)c(Nc3ccc(Br)cc3Cl)c(C(=O)NOCCO)cc21 [Selumetinib]
Response: −0.4

Prompt: Identify the reported RNA-seq results: CROT expression for the following entry. CCC(CC)[C@H](NC(C)=O)[C@@H]1[C@H](O)[C@@H](C(=O)O)C[C@H]1NC(=N)N.O.O.O [peramivir (trihydrate), peramivir]
Response: −0.4

Prompt: Identify the reported RNA-seq results: CROT expression for the following entry. NC(=O)c1ccc(I)c([N+](=O)[O-])c1 [BSI-201]
Response: −0.04

Prompt: Identify the reported RNA-seq results: CROT expression for the following entry. CCOC(=O)N1c2ccc(C(F)(F)F)cc2[C@@H](N(Cc2cc(C(F)(F)F)cc(C(F)(F)F)c2)C(=O)OC)C[C@H]1CC [Torcetrapib]
Response: −0.33

Prompt: Identify the reported RNA-seq results: CROT expression for the following entry. COc1cc(Nc2ncc(F)c(Nc3ccc4c(n3)N(COP(=O)(O)O)C(=O)C(C)(C)O4)n2)cc(OC)c1OC [fostamatinib]
Response: 0.19

====

System: hepatocytes
assay-info: RNA-seq of hepatocytes treated with Phase III failure compounds
assay-setup: gene SCN9A; hepatocytes
Entries and their measured RNA-seq results: SCN9A follow.

Some compounds with known RNA-seq results: SCN9A results, for comparison:
CCN(CC)CCN(Cc1ccc(-c2ccc(C(F)(F)F)cc2)cc1)C(=O)Cn1c(SCc2ccc(F)cc2)nc(=O)c2c1CCC2 : −0.42
C=CCNC1=C2C[C@@H](C)C[C@H](OC)[C@H](O)[C@@H](C)/C=C(\C)[C@H](OC(N)=O)[C@@H](OC)/C=C\C=C(/C)C(=O)NC(=CC1=O)C2=O : −0.22
NC(=O)c1ccc(I)c([N+](=O)[O-])c1 : 0.10

Prompt: Identify the reported RNA-seq results: SCN9A for the following entry. O=P(O)(NCCCl)NCCCl [Palifosfamide]
Response: −0.07

Prompt: Identify the reported RNA-seq results: SCN9A for the following entry. CCOC(=O)N1c2ccc(C(F)(F)F)cc2[C@@H](N(Cc2cc(C(F)(F)F)cc(C(F)(F)F)c2)C(=O)OC)C[C@H]1CC
Response: 0.25

Prompt: Identify the reported RNA-seq results: SCN9A for the following entry. Cn1cnc2c(F)c(Nc3ccc(Br)cc3Cl)c(C(=O)NOCCO)cc21
Response: 0.14

Prompt: Identify the reported RNA-seq results: SCN9A for the following entry. CCC(CC)[C@H](NC(C)=O)[C@@H]1[C@H](O)[C@@H](C(=O)O)C[C@H]1NC(=N)N.O.O.O [peramivir (trihydrate), peramivir]
Response: −0.09

====

System: hepatocytes
assay-info: RNA-seq of hepatocytes treated with Phase III failure compounds
Protocol: RNA-seq was performed to determine the effects of the compounds on hepatocytes. Significance was determined by the criteria of FPKM≥0.5, a log 2(fold-change)≥1, and a […].
Entries and their measured RNA-seq results: CYP3A4 expression follow.

Some compounds with known RNA-seq results: CYP3A4 expression results, for comparison:
CCN(CC)CCN(Cc1ccc(-c2ccc(C(F)(F)F)cc2)cc1)C(=O)Cn1c(SCc2ccc(F)cc2)nc(=O)c2c1CCC2 [Darapladib] : 0.07
C=CCNC1=C2C[C@@H](C)C[C@H](OC)[C@H](O)[C@@H](C)/C=C(\C)[C@H](OC(N)=O)[C@@H](OC)/C=C\C=C(/C)C(=O)NC(=CC1=O)C2=O [17-MG (Tanespimycin), Tanespimycin] : 0.96
NC(=O)c1ccc(I)c([N+](=O)[O-])c1 [BSI-201] : 3.12

Shift focus to the following entry.
Prompt: Identify the reported RNA-seq results: CYP3A4 expression for the following entry. COc1cc2nccc(Oc3ccc(NC(=O)Nc4cc(C)on4)c(Cl)c3)c2cc1OC [Tivozanib]
Response: 0.18

====

Entries and their measured RNA-seq results, CYP3A4 expression follow.
Tested on: hepatocytes
assay-info: RNA-seq of hepatocytes treated with Phase III failure compounds

Cn1cnc2c(F)c(Nc3ccc(Br)cc3Cl)c(C(=O)NOCCO)cc21 : 0.08
Cn1cc(C2=C(c3cn(C4CCN(Cc5ccccn5)CC4)c4ccccc34)C(=O)NC2=O)c2ccccc21 : 0.22
COc1cc2nccc(Oc3ccc(NC(=O)Nc4cc(C)on4)c(Cl)c3)c2cc1OC : 0.50

Prompt: Identify the reported RNA-seq results, CYP3A4 expression for the following entry. CCN(CC)CCN(Cc1ccc(-c2ccc(C(F)(F)F)cc2)cc1)C(=O)Cn1c(SCc2ccc(F)cc2)nc(=O)c2c1CCC2
Response: −0.47

====

Tested on: hepatocytes
assay-info: RNA-seq of hepatocytes treated with Phase III failure compounds
assay-setup: gene FAM111A; hepatocytes
Entries and their measured RNA-seq results: FAM111A expression follow.

Some molecules with known RNA-seq results: FAM111A expression results, for comparison:
COc1cc(Nc2ncc(F)c(Nc3ccc4c(n3)N(COP(=O)(O)O)C(=O)C(C)(C)O4)n2)cc(OC)c1OC [fostamatinib] : −0.14
C=CCNC1=C2C[C@@H](C)C[C@H](OC)[C@H](O)[C@@H](C)/C=C(\C)[C@H](OC(N)=O)[C@@H](OC)/C=C\C=C(/C)C(=O)NC(=CC1=O)C2=O [17-MG (Tanespimycin), Tanespimycin] : 0.93

Shift focus to the following entry.
Prompt: Identify the reported RNA-seq results: FAM111A expression for the following entry. Cn1cnc2c(F)c(Nc3ccc(Br)cc3Cl)c(C(=O)NOCCO)cc21 [Selumetinib]
Response: 0.12

====

System: hepatocytes
assay-info: RNA-seq of hepatocytes treated with Phase III failure compounds
assay-setup: gene SERPING1; hepatocytes
Response field label takes True when RNA-seq results: SERPING1 is strictly below 0.06 and False in all other cases.

Solved cases below.
O=P(O)(NCCCl)NCCCl [Palifosfamide] : True
NC(=O)c1ccc(I)c([N+](=O)[O-])c1 : True

Prompt: Confirm or reject: RNA-seq results: SERPING1 of CCOC(=O)N1c2ccc(C(F)(F)F)cc2[C@@H](N(Cc2cc(C(F)(F)F)cc(C(F)(F)F)c2)C(=O)OC)C[C@H]1CC lies strictly below 0.06
Response: True

Prompt: Confirm or reject: RNA-seq results: SERPING1 of CCC(CC)[C@H](NC(C)=O)[C@@H]1[C@H](O)[C@@H](C(=O)O)C[C@H]1NC(=N)N.O.O.O [peramivir (trihydrate), peramivir] lies strictly below 0.06
Response: True

Prompt: Confirm or reject: RNA-seq results: SERPING1 of C=CCNC1=C2C[C@@H](C)C[C@H](OC)[C@H](O)[C@@H](C)/C=C(\C)[C@H](OC(N)=O)[C@@H](OC)/C=C\C=C(/C)C(=O)NC(=CC1=O)C2=O lies strictly below 0.06
Response: False

Prompt: Confirm or reject: RNA-seq results: SERPING1 of COc1cc(Nc2ncc(F)c(Nc3ccc4c(n3)N(COP(=O)(O)O)C(=O)C(C)(C)O4)n2)cc(OC)c1OC lies strictly below 0.06
Response: False

Prompt: Confirm or reject: RNA-seq results: SERPING1 of CCN(CC)CCN(Cc1ccc(-c2ccc(C(F)(F)F)cc2)cc1)C(=O)Cn1c(SCc2ccc(F)cc2)nc(=O)c2c1CCC2 lies strictly below 0.06
Response: False

Prompt: Confirm or reject: RNA-seq results: SERPING1 of COc1cc2nccc(Oc3ccc(NC(=O)Nc4cc(C)on4)c(Cl)c3)c2cc1OC lies strictly below 0.06
Response: False

Prompt: Confirm or reject: RNA-seq results: SERPING1 of Cn1cnc2c(F)c(Nc3ccc(Br)cc3Cl)c(C(=O)NOCCO)cc21 lies strictly below 0.06
Response: True

Prompt: Confirm or reject: RNA-seq results: SERPING1 of COc1cc2c(Oc3ccc4[nH]c(C)cc4c3F)ncnc2cc1OCCCN1CCCC1 lies strictly below 0.06
Response: True

Values from patent US20210254056A1
